tested on: prostate cancer cell line (DU145); assay: In vitro cytotoxicity assay, cancer cell growth inhibition, DU145 cell
PARAMETER_MEASURED: GI50

# example entries with known answers
CCN(CC)CCOc1ccc2c(ccc3oc(C4(O)C=CC(=O)C=C4)cc(=O)c32)c1 [side chain No. 15]: 685 nM
O=C1C=CC(O)(c2cc(=O)c3c(ccc4cc(OC(=O)N5CCOCC5)ccc43)o2)C=C1 [side chain No. 6]: 617 nM
O=C1C=CC(O)(c2cc(=O)c3c(ccc4cc(OCCN5CCCCC5)ccc43)o2)C=C1 [side chain No. 17]: 541 nM

Could you share which GI50 value was measured for CC(C)N(CCOc1ccc2c(ccc3oc(C4(O)C=CC(=O)C=C4)cc(=O)c32)c1)C(C)C [side chain No. 16] ?
620 nM
